From: PubChem BioAssay AID1159580

assay: chemical genetic growth profiling, strain panel (AID 1159580);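 also: tested at 20 µM; growth read once vehicle control cultures reached saturation at 30 °C; lower values mean less growth of the strain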; conditions: S. cerevisiae deletion strains, growth OD, locus YNL233W, strain BNI4
In all, about 5,500 compounds went through this assay and about 2,000 (36%) were called active. Roughly 18% stayed inconclusive and do not appear here. Rule as the data show it: active = normalized growth mostly below about 0.91 (no sharp cut-off); inconclusive = no clear call, values can overlap the other calls; inactive = mostly above about 0.92. The list shows a part of the results.
The reply should name one outcome from active, inactive

Inquiry: Test call for this molecule, please: NCCc1ccc(O)c(O)c1
Reply text: inactive

Inquiry: Test call for this molecule, please: CC(N)Cc1ccc(O)cc1 (configuration not stated)
Reply text: inactive

Inquiry: Test call for this molecule, please: Cc1cc2cc3c(C)cc(=O)oc3c(C)c2o1
Reply text: inactive

Inquiry: Test call for this molecule, please: CCC(CCC(C)[C@H]1CCC2C3CC=C4C[C@@H](O)CC[C@]4(C)C3CC[C@@]21C)C(C)C (some centres not stated)
Reply text: inactive

Inquiry: Test call for this molecule, please: CCCCCCc1ccc(O)cc1O
Reply text: active

Inquiry: Test call for this molecule, please: CCCCC1C(=O)N(c2ccccc2)N(c2ccccc2)C1=O
Reply text: inactive

Inquiry: Test call for this molecule, please: CCCCCCCCCc1ccc(O)cc1
Reply text: active
